Property: koff; scope: individual binders
biological target: SARS-COV-2 RBD extracellular domain expressed with a C-terminal myc-myc-hexahistidine tag (SARS-CoV-2); test: SPR (Biacore), mAb captured by anti-human Fc, RBD-mmH in solution, 25 C
Please respond with the number in s⁻¹ and leave the unit unwritten.

BINDER | koff / s⁻¹
mAb15162 (antibody, V domains shown) VH: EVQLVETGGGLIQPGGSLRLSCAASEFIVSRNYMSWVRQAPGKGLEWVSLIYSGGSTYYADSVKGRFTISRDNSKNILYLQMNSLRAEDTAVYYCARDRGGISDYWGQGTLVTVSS VL: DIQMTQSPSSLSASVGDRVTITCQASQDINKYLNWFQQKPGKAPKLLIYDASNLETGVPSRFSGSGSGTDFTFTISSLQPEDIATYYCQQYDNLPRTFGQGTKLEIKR | 0.00085

Find the recorded koff belonging to mAb13459 (antibody, V domains shown) VH: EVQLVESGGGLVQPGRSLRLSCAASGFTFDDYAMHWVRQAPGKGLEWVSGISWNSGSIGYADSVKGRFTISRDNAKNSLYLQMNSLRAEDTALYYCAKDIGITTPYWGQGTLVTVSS VL: AIQMTQSPSSLSASVGDRVTITCRASQDIRNDLGWYQQKPGKAPKLLIYSASSLQTGVPSRFSGSGSGTDFTLTISSLHPEDFATYYCLQDYNYVWTFGQGTKVEIKR and report it.
0.00174
